Recorded values, source paper PMC11547513.

Parameter melting point: see the listing below.

Sample answers from the record:
- smilesStructure: "O=C(CSc1nnc(-c2cc3c(cn2)[nH]c2ccccc23)o1)Nc1ccc(F)cc1"
  assayEndpoint: "melting point"
  observedResult: "296.4 to 297.9 °C"
- smilesStructure: "COc1cc(-c2nc(-c3nnc(SCC(=O)Nc4ccc(F)cc4)o3)cc3c2[nH]c2ccccc23)cc(OC)c1OC"
  assayEndpoint: "melting point"
  observedResult: "235.8 to 237.4 °C"
- smilesStructure: "O=C(CSc1nnc(-c2cc3c(cn2)[nH]c2ccccc23)o1)N1CCOCC1"
  assayEndpoint: "melting point"
  observedResult: "228.3 to 229.6 °C"
- smilesStructure: "COc1ccc(N2CCN(C(=O)CSc3nnc(-c4cc5c([nH]c6ccccc65)c(-c5cc(OC)c(OC)c(OC)c5)n4)o3)CC2)cc1"
  assayEndpoint: "melting point"
  observedResult: "156.5 to 158.6 °C"
- smilesStructure: "COc1cc(-c2nc(-c3nnc(SCC(=O)N4CCN(c5ccc(F)cc5)CC4)o3)cc3c2[nH]c2ccccc23)cc(OC)c1OC"
  assayEndpoint: "melting point"
  observedResult: "156.8 to 158.1 °C"

Q: Tell me its melting point given COc1cc(-c2nc(-c3nnc(SCC(=O)Nc4ccc(CN5CCOCC5)cc4)o3)cc3c2[nH]c2ccccc23)cc(OC)c1OC as the entry.
A: 181.8 to 182.7 °C

Q: Look up melting point of O=C(CSc1nnc(-c2cc3c(cn2)[nH]c2ccccc23)o1)N1CCOc2ccccc21 and report it.
A: 232.4 to 232.8 °C

Q: Kindly indicate its recorded melting point. Item: O=C(CSc1nnc(-c2cc3c(cn2)[nH]c2ccccc23)o1)N1CCN(c2ccc(C(F)(F)F)cn2)CC1
A: 300.7 to 302.9 °C

Q: Return reported melting point. Input compound: COc1cc(-c2nc(-c3nnc(SCC(=O)N4CCOc5ccccc54)o3)cc3c2[nH]c2ccccc23)cc(OC)c1OC
A: 225.9 to 226.8 °C

Q: Indicate the recorded melting point value for this compound: COc1cc(-c2nc(-c3nnc(SCC(=O)N4CCN(c5ccc(Br)cc5)CC4)o3)cc3c2[nH]c2ccccc23)cc(OC)c1OC
A: 155.8 to 157.9 °C
